# tested_on: T1, biotinylated B Lymphocyte Stimulator, soluble form (human, UniProt Q9Y275 134-285, biotinylated with NHS-biotin, molar ratio 20:1 biotin:protein)
# T1 construct: also called bio-B Lymphocyte Stimulator; free B Lymphocyte Stimulator
# measurement_notes: phage scFv, receptor binding inhibition on IM9 cells
readout_name: binding result

binder="I025B06 (scFv) scFv: QVQLVQSGAEVKKPGSSVKVSCRASGGSFNHAISWVRQAPGRGLEWMGGILPMYGTANYAQKFQGRVTITADKLTNTVYMDLSRLRYEDTAVYYCARELGLSIVGATTGALDMWGKGTLVTVSSGGGGSGGGGSGGGGSAQSVLTQPPSVSAAPGQKVTISCSGSSSNIGNNYVSWYQQIPGTAPKLLIYENNKRPSGIPDRFSGSKSGASAALDITGLQTGDEADYYCGTWHSSQVVFGGGTKLTVLG" readout_name="binding result" assay_value=binds
binder="I030A10 (scFv) scFv: QVQLVQSGAEVKKPGSSVKVSCRASGGSFNHAISWVRQAPGRGLEWMGGILPMYGTANYAQKFQGRVTITADKLTNTVYMDLSRLRYEDTAVYYCARELGLSIVGATTGALDMWGRGTLVTVSSGGGGSGGGGSGGGGSAQAVLTQPSSVSGAPGQRVIISCTGSSSNIGPDYDVHWYQQLPGTAPKLLIYGNNNRPSGVPDRFSGSKSGTSASLAITGLQAEDEAHYYCQSYGSSLSGVVFGGGTKVTVLG" readout_name="binding result" assay_value=binds
